Record form. Attribute: inhibition. Fill in for each entry.
Tested on: Epidermal growth factor receptor (Homo sapiens), P00533 [L858R,T790M]
Sequence (P00533 whole entry T790M/L858R, looked up, the tested form may be a part): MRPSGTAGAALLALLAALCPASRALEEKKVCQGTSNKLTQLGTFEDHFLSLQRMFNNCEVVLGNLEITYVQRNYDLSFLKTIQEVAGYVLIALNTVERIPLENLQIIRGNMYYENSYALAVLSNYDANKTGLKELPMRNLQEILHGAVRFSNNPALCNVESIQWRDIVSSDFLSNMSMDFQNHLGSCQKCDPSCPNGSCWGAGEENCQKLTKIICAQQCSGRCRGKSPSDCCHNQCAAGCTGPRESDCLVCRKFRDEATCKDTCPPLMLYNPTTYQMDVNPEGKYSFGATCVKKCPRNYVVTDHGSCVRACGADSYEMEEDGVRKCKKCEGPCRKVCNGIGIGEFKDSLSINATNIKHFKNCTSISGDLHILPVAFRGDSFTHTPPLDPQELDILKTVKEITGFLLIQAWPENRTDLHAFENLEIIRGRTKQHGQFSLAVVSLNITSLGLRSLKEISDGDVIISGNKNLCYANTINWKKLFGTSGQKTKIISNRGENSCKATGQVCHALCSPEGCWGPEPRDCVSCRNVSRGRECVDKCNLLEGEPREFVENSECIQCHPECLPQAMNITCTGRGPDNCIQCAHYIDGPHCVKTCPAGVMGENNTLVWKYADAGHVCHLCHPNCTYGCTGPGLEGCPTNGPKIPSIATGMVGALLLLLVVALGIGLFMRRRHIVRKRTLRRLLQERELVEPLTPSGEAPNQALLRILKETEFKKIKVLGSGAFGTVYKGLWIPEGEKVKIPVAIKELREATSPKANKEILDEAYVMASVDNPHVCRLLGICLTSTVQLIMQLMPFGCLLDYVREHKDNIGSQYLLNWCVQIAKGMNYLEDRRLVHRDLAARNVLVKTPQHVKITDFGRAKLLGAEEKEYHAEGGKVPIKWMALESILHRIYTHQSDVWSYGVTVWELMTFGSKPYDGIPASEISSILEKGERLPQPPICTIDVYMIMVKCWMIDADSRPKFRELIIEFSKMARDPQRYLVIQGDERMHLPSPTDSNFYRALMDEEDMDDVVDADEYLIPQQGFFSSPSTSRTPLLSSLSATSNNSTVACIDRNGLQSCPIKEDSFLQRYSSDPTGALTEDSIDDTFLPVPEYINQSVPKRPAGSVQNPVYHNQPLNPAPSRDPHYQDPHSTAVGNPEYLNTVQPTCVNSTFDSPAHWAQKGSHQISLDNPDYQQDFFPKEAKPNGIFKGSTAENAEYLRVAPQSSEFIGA
Test: Inhibition of N-terminal GST-fused human EGFR L858R/T790M double mutant cytoplasmic domain (669 to 1210 residues) expressed in baculovirus expression system using 5-FAM-EEPLYWSFPAKKK-CONH2 as substrate at 1 uM incubated for 20 mins by Mobility shift assay
Answers are plain numbers, in %.

These solved cases illustrate the format of a correct answer.
CN1CCN(c2ccc(Nc3nc(Oc4ccc5ccc(=O)[nH]c5c4)c4sccc4n3)cc2)CC1    82
COc1cc(N2CCN(C)CC2)ccc1Nc1nc(Oc2ccc3ccc(=O)[nH]c3c2)c2sccc2n1    74
O=c1ccc2ccc(Oc3nc(Nc4ccc(N5CCOCC5)c(F)c4)nc4ccsc34)cc2[nH]1    39
CN(C)CCNc1ccc(Nc2nc(Oc3ccc4ccc(=O)[nH]c4c3)c3sccc3n2)cc1F    81
CN1CCN(c2ccc(Nc3nc(Oc4ccc5ccc(=O)[nH]c5c4)c4sccc4n3)nc2)CC1    32

Provide each entry's inhibition from the list below.
1. CN1CCN(c2ccc(Nc3nc(Oc4ccc5ccc(=O)[nH]c5c4)c4sccc4n3)cc2F)CC1
2. CN1CCN(Cc2ccc(Nc3nc(Oc4ccc5ccc(=O)[nH]c5c4)c4sccc4n3)cc2)CC1
3. COc1cccc(Nc2nc(Oc3ccc4ccc(=O)[nH]c4c3)c3sccc3n2)c1
4. O=c1ccc2ccc(Oc3nc(Nc4ccc(N5CCC(N6CCCCC6)CC5)c(F)c4)nc4ccsc34)cc2[nH]1

82
83
22
87
